Entries and their AC50
# target system: human PAH with the R408W mutation (A375 R408W cells) (Homo sapiens, UniProt P00439, R408W)
# Construct: expressed in transfected cells
# Sequence (P00439 whole entry R408W): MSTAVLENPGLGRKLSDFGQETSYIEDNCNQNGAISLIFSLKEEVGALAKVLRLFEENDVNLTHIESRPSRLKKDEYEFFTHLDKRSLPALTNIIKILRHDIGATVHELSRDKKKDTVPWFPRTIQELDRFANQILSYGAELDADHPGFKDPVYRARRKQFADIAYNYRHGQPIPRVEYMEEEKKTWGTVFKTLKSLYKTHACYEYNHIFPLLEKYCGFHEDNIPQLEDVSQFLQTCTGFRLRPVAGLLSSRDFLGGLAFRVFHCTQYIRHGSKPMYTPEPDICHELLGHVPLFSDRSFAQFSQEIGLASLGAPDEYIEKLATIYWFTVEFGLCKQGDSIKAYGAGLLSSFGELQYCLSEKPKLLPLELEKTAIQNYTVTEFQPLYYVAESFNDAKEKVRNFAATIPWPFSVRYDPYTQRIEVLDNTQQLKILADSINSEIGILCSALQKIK
# test description: Cell Based Phenylalanine Flux Assay
# test settings: A375 R408W cells; 24 hrs with compound, then 20 μM sepiapterin and 800 μM 13C9,15N-Phenylalanine for 4 hours; 13C-Tyrosine by LC-MS; average where tested multiple times

As a guide, the following entries are already answered.
FC(F)(F)c1nnc(N2Cc3[nH]cnc3[C@@H]2c2nc3ccccc3o2)o1 = ≥ 5000 nM
O=C(c1oc(-c2ccncc2)nc1C(F)F)N1CCc2[nH]cnc2[C@@H]1c1nc2cc(F)ccc2o1 = 500 to 1000 nM
Cn1nc(C(F)F)nc1C(=O)N1CCc2[nH]cnc2[C@H]1c1nc2cccc(F)c2o1 = 500 to 1000 nM

Read the next record carefully.
Could you share what AC50 was measured for COc1ccc2oc([C@@H]3c4nc[nH]c4CCN3C(=O)c3oc(C(C)(C)O)nc3C(F)F)nc2c1 , tested on human PAH with the R408W mutation (A375 R408W cells) (Homo sapiens, UniProt P00439, R408W)?
500 to 1000 nM
